Where do the numbers come from? From patent US10307404B1.

TEST DESCRIPTION: PK of topical ocular sodium phosphate-based Gel Drop, concentrations 1 hour after last dose
Type: in vivo, Dutch-belted rabbits
CONDITION NOTES: Dutch-belted, rabbit, choroid, 2 mg/ml, pH 6, 2 mg/ml pH 6.0 Phos 0.2% BAK 0.005% Gly 2%, 3x/day 5 days, read-out: MEAN [choroid]

>  <MOLECULE>
Cl.NC(=O)c1c(OCc2c(F)cc(Br)cc2F)nsc1NC(=O)NCCCCN1CCCC1 [Compound-I, hydrochloride]

>  <concentration at 1 h>
532 nM

$$$$

====

TEST DESCRIPTION: PK of topical ocular sodium phosphate-based Gel Drop, concentrations 1 hour after last dose
Assay type: in vivo, Dutch-belted rabbits
CONDITION NOTES: Dutch-belted, rabbit, choroid, 1 mg/ml, pH 6, 1 mg/ml pH 6 Phos 0.05% BAK 0.005% Gly 2%, 3x/day 5 days, read-out: MEAN [choroid]
EXPERIMENTAL ENDPOINT: concentration at 1 h (nM)

>  <MOLECULE>
Cl.NC(=O)c1c(OCc2c(F)cc(Br)cc2F)nsc1NC(=O)NCCCCN1CCCC1 [Compound-I, hydrochloride]

>  <VAL>
398

$$$$

====

TEST DESCRIPTION: PK of topical ocular sodium phosphate-based Gel Drop, concentrations 1 hour after last dose
Type: in vivo, Dutch-belted rabbits
CONDITION NOTES: Dutch-belted, rabbit, choroid, 2 mg/ml, pH 6.1, 2 mg/ml pH 6.1 Phos […] Osmo 22, 3x/day 5 days, read-out: MEAN [choroid]
EXPERIMENTAL ENDPOINT: concentration at 1 h (nM)

>  <MOLECULE>
Cl.NC(=O)c1c(OCc2c(F)cc(Br)cc2F)nsc1NC(=O)NCCCCN1CCCC1 [Compound-I, hydrochloride]

>  <UNIT ANNOTATION>
nM

>  <VAL>
356

$$$$

====

TEST DESCRIPTION: PK of topical ocular sodium phosphate-based Gel Drop, concentrations 1 hour after last dose
Type: in vivo, Dutch-belted rabbits
CONDITION NOTES: Dutch-belted, rabbit, choroid, 2 mg/ml, pH 6, 2 mg/ml pH 6 Phos 0.2% BAK 0.005% Gly 2% PS80 1% Osmo 281, 3x/day 5 days, read-out: MEAN [choroid]

>  <COMPOUND>
Cl.NC(=O)c1c(OCc2c(F)cc(Br)cc2F)nsc1NC(=O)NCCCCN1CCCC1 [Compound-I, hydrochloride]

>  <UNIT ANNOTATION>
nM

>  <concentration at 1 h>
357

$$$$

====

TEST DESCRIPTION: PK of topical ocular sodium phosphate-based Gel Drop, concentrations 1 hour after last dose
Assay type: in vivo, Dutch-belted rabbits
CONDITION NOTES: Dutch-belted, rabbit, choroid, 2 mg/ml, pH 6.1, 2 mg/ml pH 6.1 Phos […] Osmo 34, 3x/day 4 days, read-out: MEAN [choroid]

>  <COMPOUND>
Cl.NC(=O)c1c(OCc2c(F)cc(Br)cc2F)nsc1NC(=O)NCCCCN1CCCC1 [Compound-I, hydrochloride]

>  <concentration at 1 h / µM>
0.466

$$$$

====

TEST DESCRIPTION: PK of topical ocular sodium phosphate-based Gel Drop, concentrations 1 hour after last dose
Assay type: in vivo, Dutch-belted rabbits
CONDITION NOTES: Dutch-belted, rabbit, plasma, 2 mg/ml, pH 6, 2 mg/ml pH 6 Phos 0.2% BAK 0.005% Gly 2% PS80 1% Osmo 281, 3x/day 5 days, read-out: [plasma]
EXPERIMENTAL ENDPOINT: concentration at 1 h

>  <COMPOUND>
Cl.NC(=O)c1c(OCc2c(F)cc(Br)cc2F)nsc1NC(=O)NCCCCN1CCCC1 [Compound-I, hydrochloride]

>  <VAL>
4.94 nM

$$$$
